Data provenance: patent US10829473B2

The entries below are paired with their reported pEC50.
Target: F508delCFTR (Homo sapiens, UniProt P13569, DEL508-508)
Construct: expressed in transfected cells; host or cells: CFBE41o- human lung derived epithelial cells (CFBE41o-F508delCFTR-HRP), doxycycline-inducible
Sequence (P13569 with tags, fused parts or gaps DEL508-508): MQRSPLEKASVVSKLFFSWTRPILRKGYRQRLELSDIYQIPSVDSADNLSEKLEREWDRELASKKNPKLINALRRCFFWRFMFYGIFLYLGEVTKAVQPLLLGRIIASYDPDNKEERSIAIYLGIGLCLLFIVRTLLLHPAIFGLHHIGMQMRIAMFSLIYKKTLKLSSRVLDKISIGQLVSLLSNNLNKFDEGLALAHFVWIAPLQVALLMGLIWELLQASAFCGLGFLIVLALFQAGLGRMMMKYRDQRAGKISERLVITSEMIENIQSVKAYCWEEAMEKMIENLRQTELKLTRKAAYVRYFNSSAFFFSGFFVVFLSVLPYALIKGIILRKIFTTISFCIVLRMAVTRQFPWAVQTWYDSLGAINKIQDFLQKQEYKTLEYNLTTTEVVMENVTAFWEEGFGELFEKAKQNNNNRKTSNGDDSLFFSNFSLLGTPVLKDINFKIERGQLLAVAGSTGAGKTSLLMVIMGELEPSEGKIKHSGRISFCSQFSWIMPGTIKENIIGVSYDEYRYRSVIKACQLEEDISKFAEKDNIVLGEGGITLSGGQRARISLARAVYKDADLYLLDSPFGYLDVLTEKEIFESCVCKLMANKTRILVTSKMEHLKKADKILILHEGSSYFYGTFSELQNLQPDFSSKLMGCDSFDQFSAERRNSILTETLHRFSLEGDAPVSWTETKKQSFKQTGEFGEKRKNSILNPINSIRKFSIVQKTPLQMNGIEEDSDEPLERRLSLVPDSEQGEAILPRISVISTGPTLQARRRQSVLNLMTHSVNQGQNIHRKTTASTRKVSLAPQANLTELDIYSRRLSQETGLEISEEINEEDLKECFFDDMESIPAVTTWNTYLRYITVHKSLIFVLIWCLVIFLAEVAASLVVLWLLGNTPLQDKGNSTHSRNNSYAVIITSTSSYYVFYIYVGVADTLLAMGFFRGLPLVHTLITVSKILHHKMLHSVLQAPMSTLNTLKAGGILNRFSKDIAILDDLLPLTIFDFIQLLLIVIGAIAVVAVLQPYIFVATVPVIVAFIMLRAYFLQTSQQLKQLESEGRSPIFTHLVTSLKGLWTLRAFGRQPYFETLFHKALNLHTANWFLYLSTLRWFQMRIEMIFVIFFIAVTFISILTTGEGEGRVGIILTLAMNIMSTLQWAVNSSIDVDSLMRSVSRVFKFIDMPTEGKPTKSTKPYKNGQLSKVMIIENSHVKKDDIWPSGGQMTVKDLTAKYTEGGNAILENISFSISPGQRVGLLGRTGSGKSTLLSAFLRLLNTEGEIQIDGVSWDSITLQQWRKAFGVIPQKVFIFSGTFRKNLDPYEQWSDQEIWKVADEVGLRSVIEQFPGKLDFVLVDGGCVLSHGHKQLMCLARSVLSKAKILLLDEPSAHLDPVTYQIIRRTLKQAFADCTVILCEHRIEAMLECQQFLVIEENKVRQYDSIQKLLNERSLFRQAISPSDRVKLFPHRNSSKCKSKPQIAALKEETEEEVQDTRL
Assay: Cell Surface Expression-Horse Radish Peroxidase (CSE-HRP) Assay;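 further: co-corrector chromenyl benzoic acid corrector at 2 or 3 µM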
Type: cell-based
Details: with co-corrector; read-out: EC50 (with co-corrector)
pEC50: −log10 of the molar value.

Take a look at these entries with their results.
[[record]]
structure_as_smiles = "COc1ncc(C(F)(F)F)cc1C1(C(=O)NS(=O)(=O)c2cccc3[nH]ccc23)CC1"
test_value = "> 5.52"

[[record]]
structure_as_smiles = "COc1c(C)cccc1C1(C(=O)NS(=O)(=O)c2cccc3ncccc23)CC1"
test_value = "> 5.52"

[[record]]
structure_as_smiles = "COc1ccc(C2CCC2)cc1C1(C(=O)NS(=O)(=O)c2cccc3c2CCN3C)CC1"
test_value = "5.00 to 5.52"

[[record]]
structure_as_smiles = "COc1ccc(CO)cc1C1(C(=O)NS(=O)(=O)c2cccc3ncccc23)CC1"
test_value = "5.00 to 5.52"

[[record]]
structure_as_smiles = "CN(C)c1ncc(C(F)(F)F)cc1C1(C(=O)NS(=O)(=O)c2cccc3ccccc23)CC1"
test_value = "> 5.52"

[[record]]
structure_as_smiles = "CCCS(=O)(=O)NC(=O)C1(c2ccc(Cl)cc2Cl)CC1"
test_value = "< 5.00"


Exercise: What value of measured pEC50 is listed for COc1ncc(C2CCC2)c(C)c1C1(C(=O)NS(=O)(=O)c2cccc3cnn(C)c23)CC1 ?
Key: > 5.52

Exercise: I'd like to know its pEC50. The compound in question is COc1ccc(C(C)(C)OC)cc1C1(C(=O)NS(=O)(=O)c2cccc3[nH]ccc23)CC1
Key: > 5.52

Exercise: Looking for the measured pEC50 of Cc1ccc(O[C@@H]2CCOC2)c(C2(C(=O)NS(=O)(=O)c3cccc4nc(C)ccc34)CC2)c1 , can you help?
Key: > 5.52

Exercise: Which pEC50 value is on record for CCc1ccc(O[C@H]2CCOC2)c(C2(C(=O)NS(=O)(=O)c3cccc4ncccc34)CC2)c1 ?
Key: > 5.52
